test system: murine neural precursor cells (neurosphere cultures); test: HTS of LOPAC library against secondary neurosphere cultures, MTT proliferation assay at 3 μM, day 7 (z score, P value); type: cell-based, mouse; conditions: LOPAC primary screen, neurosphere MTT proliferation, 3 μM, day 7
Where a name gives a salt, the structure may show the parent alone.
QUANTITY: Z score
Answers are plain numbers.

A selection of reference data follows.
molecule="O=C(Nc1cc(C(=O)Nc2ccc(S(=O)(=O)[O-])cc2S(=O)(=O)[O-])cc(C(=O)Nc2ccc(S(=O)(=O)[O-])cc2S(=O)(=O)[O-])c1)Nc1cc(C(=O)Nc2ccc(S(=O)(=O)[O-])cc2S(=O)(=O)[O-])cc(C(=O)Nc2ccc(S(=O)(=O)[O-])cc2S(=O)(=O)[O-])c1.[Na+].[Na+].[Na+].[Na+].[Na+].[Na+].[Na+].[Na+] [NF449 octasodium salt]" quantity="Z score" numeric_readout=1.851
molecule=C1CCc2nnnn2CC1 quantity="Z score" numeric_readout=−0.927
molecule="Oc1ccc2c3c1O[C@H]1c4[nH]c5c(c4C[C@@]4(O)[C@@H](C2)N(CC2CC2)CC[C@]314)C[C@@]1(O)[C@H]2Cc3ccc(O)c4c3[C@@]1(CCN2CC1CC1)[C@H]5O4 [nor-Binaltorphimine dihydrochloride]" quantity="Z score" numeric_readout=0.388

# lookup: murine neural precursor cells (neurosphere cultures) Z score, key = O=C(Nc1ccc([N+](=O)[O-])cc1Cl)c1cc(Cl)ccc1O [Niclosamide] −2.784
